method: growth inhibition, single agent or in combination, cell-based, chromothripsis tumors, cisplatin or BGB combos (AID 1671449);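 note: cells exposed for 96 hours; 0% = vehicle DMSO and 100% = killing by high DMSO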
experimentalParameters: LFS_MB_P medulloblastoma cells, measured here: combination with BGB IC40, at 0.005 µM
measureName: inhibition (%)
Supply the numeric figure in %, leaving out any unit text.

Can you share its inhibition? I mean this compound: Nc1nc2c(ncn2COC(CO)CO)c(=O)[nH]1
-22.8

Can you share its inhibition? I mean this compound: O=c1oc2c(O)c(O)cc3c(=O)oc4c(O)c(O)cc1c4c23
-25.9

Can you share its inhibition? I mean this compound: CN(C)c1ccc(C(=C2C=CC(=[N+](C)C)C=C2)c2ccc(N(C)C)cc2)cc1
-20.2

Can you share its inhibition? I mean this compound: O=c1c(O)c(-c2ccc(O)c(O)c2)oc2cc(O)cc(O)c12
13.5
